For each record, write down the corresponding pIC50.
# System: human pharyngeal carcinoma KB3-1 cells
# test protocol: anti-proliferative activity against KB3-1 (WST-8)
# Type: cell-based
# run conditions: KB 3-1, 72 hours culture with compound
Numbers only, as −log10 of the molar value.

1. COc1cccc2c1C(=O)c1c(O)c3c(c(O)c1C2=O)C[C@@](O)(C(=O)CO)C[C@@H]3O[C@H]1C[C@H](N)[C@H](O)[C@H](C)O1 [doxorubicin, reference compound]; 6.44

Then there is this compound:
// map C[C@]12C=CC3=CC4=C(CCCC4=O)O[C@H]3[C@@H]1CC[C@@H]2c1ccc2ccncc2c1 to recorded pIC50 (system: human pharyngeal carcinoma KB3-1 cells)
4.98
